experimental protocol: CEETOX_H295R_OHPROG: CeeTox H295R High-throughput Steroidogenesis Assay for OH-Progesterone (OHPROG) (AID 2283435)
run conditions: actives raise or lower the signal
Activity calls are given as the source filed them. Rule for the calls: active = hit-call score of the fitted dose curve at least 0.9, where 1 is the maximum; inactive = score below 0.9.
Choose the fitting class; nothing outside active, inactive is accepted.

>>> class_name("CC=Cc1ccc(O)c(OC)c1")
"inactive"
>>> class_name("NC(=O)Cn1c(=O)cc(CCN2CCN(c3nccc4sccc34)CC2)c2ccc(F)cc21")
"active"
>>> class_name("C[C@]12C=CC(=O)C=C1CC[C@@H]1[C@@H]2C(=O)C[C@@]2(C)[C@H]1CC[C@]2(O)C(=O)CO")
"inactive"
>>> class_name("CN1CCN(Cc2cc(-c3ccc4[nH]c(=O)oc4c3)co2)[C@@H](c2ccc(F)cc2)C1")
"active"
>>> class_name("Cc1nc(C)nc(N2C[C@@H](C)N(c3ccnc([C@@H](C)O)n3)[C@@H](C)C2)n1")
"inactive"

I'd appreciate the recorded outcome for COc1ccc2c(c1)c(CC(=O)O)c(C)n2C(=O)c1ccc(Cl)cc1 from this test.
inactive

I'd appreciate the recorded outcome for COc1ccc(S(=O)(=O)N2C(=O)[C@@](c3ccccc3OC)(N3C[C@H](O)C[C@H]3C(=O)N(C)C)c3cc(Cl)ccc32)c(OC)c1 from this test.
active

###

experimental protocol: ATG_TA_CIS: Attagene CIS-FACTORIAL HepG2 Assay for human TA Basal Promoter (AID 2282964)
run conditions: HepG2 Attagene CIS-factorial TA basal promoter reporter; actives raise or lower the signal
Calls of active or inactive are those of the source. How the source made its calls: active means hit-call score of the fitted dose curve at least 0.9, where 1 is the maximum; inactive means score below 0.9.
Choose the fitting class; nothing outside y = active, n = inactive is accepted.

>>> class_name("c1cc(-c2ccncc2)ccn1")
"n"
>>> class_name("CN1CCN(Cc2cc(-c3ccc4[nH]c(=O)oc4c3)co2)[C@@H](c2ccc(F)cc2)C1")
"y"
>>> class_name("CC(C)(C)c1cc(O)c(C(C)(C)C)cc1O")
"y"
>>> class_name("O=C(OCCCCCOC(=O)c1ccccc1)c1ccccc1")
"n"

I'd appreciate the recorded outcome for COc1ccc(S(=O)(=O)N2C(=O)[C@@](c3ccccc3OC)(N3C[C@H](O)C[C@H]3C(=O)N(C)C)c3cc(Cl)ccc32)c(OC)c1 from this test.
y

I'd appreciate the recorded outcome for COc1cc(C=O)ccc1O from this test.
n

I'd appreciate the recorded outcome for CCCCOC(=O)CCCCCCCCC(=O)OCCCC from this test.
n

I'd appreciate the recorded outcome for Cc1ccc(C)c(C)c1 from this test.
n

I'd appreciate the recorded outcome for CCCCCCCCCCCCCO from this test.
n

I'd appreciate the recorded outcome for O=c1c(O)c(-c2ccc(O)c(O)c2)oc2cc(O)cc(O)c12 from this test.
n

I'd appreciate the recorded outcome for OC[C@@H](O)[C@@H](O)[C@H](O)[C@H](O)CO from this test.
n

I'd appreciate the recorded outcome for CCCc1cc(=O)[nH]c(=S)[nH]1 from this test.
n

###

tested target: Cellular tumor antigen p53 (Homo sapiens)
experimental protocol: ATG_p53_CIS: Attagene CIS-FACTORIAL HepG2 Assay for human p53 Transcription Factor (AID 2282994)
run conditions: HepG2 p53 cis-element reporter, Attagene mRNA; actives raise or lower the signal
Calls of active or inactive are those of the source. How the source made its calls: active means hit-call score of the fitted dose curve at least 0.9, where 1 is the maximum; inactive means score below 0.9.
Choose the fitting class; nothing outside label 1 = active, label 0 = inactive is accepted.

Solved entries (count: 2):
>>> class_name("CCCCCCCCCCC")
"label 0"
>>> class_name("CNC(=O)[C@H]1O[C@@H](n2cnc3c(NCc4cc(Cl)ccc4OCc4cc(C)no4)ncnc32)[C@H](O)[C@@H]1N")
"label 0"

I'd appreciate the recorded outcome for CCCCOC(=O)CCCCCCCCC(=O)OCCCC from this test.
label 1

###

Read-out: Cytochrome P450 3A7 (Homo sapiens)
experimental protocol: LTEA_HepaRG_CYP3A7: Life Technologies and Expression Analysis (LTEA) Assay for CYP3A7 using HepaRG (AID 2283492)
run conditions: mRNA level, 48 h; actives raise or lower the signal
The source made the active and inactive calls. How the source made its calls: active means hit-call score of the fitted dose curve at least 0.9, where 1 is the maximum; inactive means score below 0.9.
Choose the fitting class; nothing outside 1 for active, -1 for inactive is accepted.

Solved entries (count: 3):
>>> class_name("CCCCCCCCCCCCCCCCCC(=O)O")
-1
>>> class_name("CCCCCCOCCO")
-1
>>> class_name("COc1cc(C=O)ccc1O")
-1

I'd appreciate the recorded outcome for CC=Cc1ccc(O)c(OC)c1 from this test.
-1

I'd appreciate the recorded outcome for NCC1(Cc2noc(=O)[nH]2)CCCCC1 from this test.
-1

###

Read-out: CYP2E1 (gene 1571)
experimental protocol: LTEA_HepaRG_CYP2E1: Life Technologies and Expression Analysis (LTEA) Assay for CYP2E1 using HepaRG (AID 2283485)
run conditions: mRNA level, 48 h; actives raise or lower the signal
The source made the active and inactive calls. Rule for the calls: active = hit-call score of the fitted dose curve at least 0.9, where 1 is the maximum; inactive = score below 0.9.
Choose the fitting class; nothing outside active, inactive is accepted.

>>> class_name("CCCCC(CC)COC(=O)CC(C(=O)OCC(CC)CCCC)S(=O)(=O)O (configuration not stated)")
"active"
>>> class_name("O=[N+]([O-])C(CO)(CO)CO")
"inactive"
>>> class_name("Cc1cccc(Nc2cc(Cl)nc(SCC(=O)O)n2)c1C")
"active"
>>> class_name("Cc1ccc(C)c(C)c1")
"inactive"
>>> class_name("Cc1ccc(C(C)C)c(O)c1")
"inactive"
>>> class_name("Cc1ccc(Cl)cc1")
"inactive"

I'd appreciate the recorded outcome for NCC1(Cc2noc(=O)[nH]2)CCCCC1 from this test.
inactive

###

Read-out: Cytochrome P450 (CYP1A2), CYP1A2 (gene 1544)
experimental protocol: LTEA_HepaRG_CYP1A2: Life Technologies and Expression Analysis (LTEA) Assay for Cytochrome P450 (CYP1A2) using HepaRG (AID 2283479)
run conditions: mRNA level, 48 h; actives raise or lower the signal
The source made the active and inactive calls. How the source made its calls: active means hit-call score of the fitted dose curve at least 0.9, where 1 is the maximum; inactive means score below 0.9.
Choose the fitting class; nothing outside active, inactive is accepted.

>>> class_name("CC1(C)CC(N=C=O)CC(C)(CN=C=O)C1 (stereo not drawn)")
"inactive"

I'd appreciate the recorded outcome for NC(=O)Cn1c(=O)cc(CCN2CCN(c3nccc4sccc34)CC2)c2ccc(F)cc21 from this test.
inactive

I'd appreciate the recorded outcome for Cc1nc(-c2ccc3c(c2)CCN(CCC2CCC(NC(=O)/C=C/c4ccc(F)cc4)CC2)CC3)no1 (stereo not drawn) from this test.
inactive

I'd appreciate the recorded outcome for CCCCCCCCCCCCCCCC from this test.
active

I'd appreciate the recorded outcome for Cc1oc(-c2ccccc2)nc1CCOc1cccc2c1ccn2CCC(=O)O from this test.
inactive

I'd appreciate the recorded outcome for Cc1cccc(Nc2cc(Cl)nc(SCC(=O)O)n2)c1C from this test.
inactive

###

Read-out: MYC, MYC (gene 4609)
experimental protocol: LTEA_HepaRG_MYC: Life Technologies and Expression Analysis (LTEA) Assay for MYC using HepaRG (AID 2283518)
run conditions: mRNA level, 48 h; actives raise or lower the signal
Experimental: LTEA_HepaRG is a cell based, multiplexed-readout assay that uses HepaRG, a human liver cell line, with measurements taken at 48 hours after chemical dosing on a 96-well plate.LTEA_HepaRG_MYC is one of 102 assay component(s) measured in the LTEA HepaRG cell culture assay. It is a marker of Cell proliferation, survival, death.Data from the assay component LTEA_HepaRG_MYC was analyzed into 1 endpoint. […]
Activity calls are given as the source filed them. How the source made its calls: active means hit-call score of the fitted dose curve at least 0.9, where 1 is the maximum; inactive means score below 0.9.
Choose the fitting class; nothing outside T for active, F for inactive is accepted.

Solved entries (count: 4):
>>> class_name("CC1(C)NC(=O)NC1=O")
"F"
>>> class_name("OC[C@@H](O)[C@@H](O)[C@H](O)[C@H](O)CO")
"F"
>>> class_name("Cc1ccc(C)c(O)c1C")
"F"
>>> class_name("CN1CCN(Cc2cc(-c3ccc4[nH]c(=O)oc4c3)co2)[C@@H](c2ccc(F)cc2)C1")
"F"

I'd appreciate the recorded outcome for COc1ccc(C)cc1N from this test.
F

I'd appreciate the recorded outcome for Cc1cccc(C)c1O from this test.
F

I'd appreciate the recorded outcome for COc1cc(S(=O)(=O)O)c(C)cc1N=Nc1c(O)ccc2cc(S(=O)(=O)O)ccc12 from this test.
F

I'd appreciate the recorded outcome for Nc1ccccc1N from this test.
T

I'd appreciate the recorded outcome for CCCCCCCCCCC from this test.
F

###

Read-out: CD38, CD38 (gene 952)
experimental protocol: BSK_SAg_CD38: BioMAP Diversity Plus: SAg Assay for CD38 Biomarker Activity (AID 2283087)
run conditions: primary human HUVEC with PBMC; actives raise or lower the signal
The source made the active and inactive calls. How the source made its calls: active means hit-call score of the fitted dose curve at least 0.9, where 1 is the maximum; inactive means score below 0.9.
Choose the fitting class; nothing outside active, inactive is accepted.

Solved entries (count: 8):
>>> class_name("COc1cc(S(=O)(=O)O)c(C)cc1N=Nc1c(O)ccc2cc(S(=O)(=O)O)ccc12")
"inactive"
>>> class_name("C[Si]1(C)O[Si](C)(C)O[Si](C)(C)O[Si](C)(C)O1")
"inactive"
>>> class_name("Cc1ccc(C(C)C)c(O)c1")
"inactive"
>>> class_name("CC(=O)OCCOCCOCCOC(C)=O")
"inactive"
>>> class_name("CC(C)(C)c1cc(O)c(C(C)(C)C)cc1O")
"inactive"
>>> class_name("CCCCCCCCCCC")
"inactive"
>>> class_name("CCCCCCCCCCCCCCCCCC(=O)O")
"inactive"
>>> class_name("COCCOC[C@H](CC1(C(=O)NC2CCC(C(=O)O)CC2)CCCC1)C(=O)Oc1ccc2c(c1)CCC2 (stereo partly specified)")
"inactive"

I'd appreciate the recorded outcome for O=c1[nH]cc(F)c(=O)[nH]1 from this test.
inactive

I'd appreciate the recorded outcome for Cc1nc(C)nc(N2C[C@@H](C)N(c3ccnc([C@@H](C)O)n3)[C@@H](C)C2)n1 from this test.
inactive

I'd appreciate the recorded outcome for Nc1nc(N)c2nc(CNc3ccc(C(=O)N[C@@H](CCC(=O)O)C(=O)O)cc3)cnc2n1 from this test.
inactive
